// Human 5-HT7 (Homo sapiens, UniProt P34969) Ki records

# molecule, system, qualifyingSign, Ki [nM]
measured = [
    ("CN(C)C1CCc2c(cccc2-c2cc(Cl)cc(Cl)c2)C1 (racemic) [(R/S)-Methyl / Phenyl-3′,5′-Cl]", "Human 5-HT7 (Homo sapiens, UniProt P34969)", "=", 40),
    ("COc1cc(-c2ccccc2)c2c(c1OC)CC(N(C)C)CC2 (racemic) [(R/S)-Methyl / 7,8-diOMe-5-Phenyl]", "Human 5-HT7 (Homo sapiens, UniProt P34969)", ">", 10000),
    ("CCCN(CCC)[C@H]1CCc2c(cccc2-c2ccccc2)C1 [(S)-Propyl / Phenyl]", "Human 5-HT7 (Homo sapiens, UniProt P34969)", "=", 83),
    ("CCCN(CCC)[C@@H]1CCc2c(cccc2-c2ccccc2)C1 [(R)-Propyl / Phenyl]", "Human 5-HT7 (Homo sapiens, UniProt P34969)", "=", 180),
    ("CCCN(CCC)[C@H]1CCc2c(cccc2-c2ccccc2F)C1 [(S)-Propyl / 2′-F-Phenyl]", "Human 5-HT7 (Homo sapiens, UniProt P34969)", "=", 35),
    ("CN(C)[C@H]1CCc2c(cccc2-c2ccccc2F)C1 [(S)-Methyl / Phenyl-2′-F]", "Human 5-HT7 (Homo sapiens, UniProt P34969)", "=", 6),
    ("CN(C)C1CCc2c(cccc2-c2cccc(F)c2)C1 (racemic) [(R/S)-Methyl / Phenyl-3′-F]", "Human 5-HT7 (Homo sapiens, UniProt P34969)", "=", 34),
]
